Dear all, I have gathered published IC50 values for UniProtKB P35968; the list follows.
measurement.type: IC50

• c1cc2cc(Nc3ccc(N4CCOCC4)cc3)cnc2[nH]1 = ≤ 10000 nM
• O=C(c1ccc(Cl)cc1Cl)c1c[nH]c2ncc(Oc3ccccc3)cc12 = ≤ 10000 nM
• Cc1ccc(Nc2ccc3c(NC(=O)c4ccc(C5CCN(C)CC5)cc4)n[nH]c3n2)c(F)c1 = 1 nM
• CC(C)(O)COc1cc(-c2ccc(N3C[C@@H]4C[C@@](C)(NC(=O)c5c(F)cccc5Cl)C[C@@H]4C3)nc2)c2c(C#N)cnn2c1 = 10 to 50 nM
• O=C(Nc1ccc(F)c(OC(F)(F)F)c1)Nc1ccc(Oc2ccnc(NC(=O)C3CC3)c2)cc1F = 13.2 nM
• C=CC(=O)Nc1cc2c(Nc3ccc(Br)cc3F)ncnc2cc1OCCNC(=O)CCN1CCCCC1 = 945 nM
• COc1cc(OC)cc(N(CC2CC2)c2ccc3ncc(-c4nnnn4C)nc3c2)c1 = > 1000 nM
• CCCS(=O)(=O)Nc1ccc(F)c(C(=O)c2c[nH]c3ncc(-c4ccc(CCCOC)nc4)cc23)c1F = ≤ 10000 nM
